target-under-test: T1, recombinant human TR-2 with a C-terminal hexahistidine tag (TR-2-His) (human, UniProt O14763 56-207)
T1 construct: also called soluble TR-2-His
protocol-summary: SPR Biacore 2000; antibody captured on anti-human antibody chip, 226 nM TR-2-His injected, 25 C, 1:1 model;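 note: goat anti-human capture surface amine-coupled on CM5 chip, HBS-P running buffer with BSA, responses normalized to captured antibody level, kinetics from global 1:1 fitting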
value-kind: Kd (nM)
The response must be a number in nM with no trailing unit.

GET /value?item= anti-TR-2 antibody A (antibody, V domains shown, also called Ab A) VH: QVQLVQSGAEVKKPGASVKVSCKASGYTFTSYDINWVRQATGQGLEWMGWMNPNSDNTGYAQKFQGRVTMTRNTSISTAYMELSSLRSEDTAVYYCARWNHYGSGSHFDYWGQGTLVTVSS VL: DIQMTQSPSSLSASVGDRVTITCRASQSISIYLNWYQQKPGKAPKLLIYAASSLQSGVPLRFSGSGSGTDFTLTISSLQPEDIATYYCQQSYKTPLTFGGGTKVEIK &field=Kd returns 6.9
